# test.protocol: Inhibition of bovine brain tubulin polymerization after 20 mins
# Set-up: species or system Bos taurus
Listed below: pIC50 values for each entry.
Reminder that pIC50 is minus the log10 of a molar concentration.

Worked examples follow.
compound | pIC50
CCN(CC)C(=S)SC(CC(=O)c1ccc(Cl)c(Cl)c1)c1ccccc1 (stereo unspecified) | 4.22
CCN(CC)C(=S)SC(CC(=O)c1ccc(Cl)cc1)c1ccccc1 (stereo unspecified) | 5.17
CCN(CC)C(=S)SC(CC(=O)c1ccccc1)c1ccc(C)cc1 (stereo unspecified) | 3.66
CCN(CC)C(=S)SC(CC(=O)c1ccccc1)c1ccc(F)cc1 (stereo unspecified) | 4.10
CCN(CC)C(=S)SC(CC(=O)c1ccc(Br)cc1)c1ccc(F)cc1 (stereo unspecified) | 4.74
CCN(CC)C(=S)SC(CC(=O)c1ccc(OC)cc1)c1ccccc1 (stereo unspecified) | 4.21
CCN(CC)C(=S)SC(CC(=O)c1ccccc1)c1ccc(Cl)cc1 (stereo unspecified) | 4.82
CCN(CC)C(=S)SC(CC(=O)c1ccccc1)c1ccc(Br)cc1 (stereo unspecified) | 4.92
CCN(CC)C(=S)SC(CC(=O)c1ccccc1)c1ccccc1 (stereo unspecified) | 3.89
CCN(CC)C(=S)SC(CC(=O)c1ccc(OC)cc1)c1ccc(Cl)cc1 (stereo unspecified) | 3.85

Please find the next compound below.
Reported pIC50 for CCN(CC)C(=S)SC(CC(=O)c1ccccc1)c1ccc(OC)cc1 (stereo unspecified) was 4.35
